- STUDY SYSTEM: UniProtKB P19858
MEASURED METRIC: pKi
Notebook: values listed as pKi are -log10 of the concentration (mol/L).

Give pKi (UniProtKB P19858) of the following compound: NC(=O)C(=O)O [OXAMATE]
3.87

###

- STUDY SYSTEM: L-lactate dehydrogenase A chain (Homo sapiens)
- METHOD NOTES: Inhibition of LDHA in human MG63 cells assessed as decrease in lactate levels after 4 hrs
- Assay type: cell-based
MEASURED METRIC: IC50

For the molecule shown here, `COCc1cc(=O)c(O)c([C@@H](CC(N)=O)c2cc3ccccc3n(CC(C)C)c2=O)o1` , give the reported IC50.
7.19 µM

###

- Test system: MG-63
- METHOD NOTES: Growth inhibition of human MG63 cells at 10 uM after 72 hrs by MTT assay relative to control
- Type: functional
- CONDITION INFO: MG-63, 72 h, read-out: GI
MEASURED METRIC: inhibition of growth at 10 µM (%)
The answer is to be given in %; state only the numeric part.

Look over these answered cases.
Cc1cc(=O)c(O)c([C@H](CC(=O)N2CCc3c([nH]c4ccccc34)C2)c2ccnc3ccccc23)o1    48.7
COCc1cc(=O)c(O)c([C@@H](CC(N)=O)c2cc3ccccc3n(CC(C)C)c2=O)o1    88.7

For the molecule shown here, `COC(=O)C[C@H](c1cccc(O)c1)c1oc(CSc2ccccc2OC)cc(=O)c1O` , give the reported inhibition of growth at 10 µM.
68.9

Which inhibition of growth at 10 µM is listed for `CCOC(=O)C[C@H](c1cc(OC)c2c(c1)OCCO2)c1oc(CO)cc(=O)c1O` ?
67.8
